Target: the molecule itself
Assay: SEC
Measured stoichiometry N of individual entries
measurement-name: stoichiometry N

protein="C14orf149, human trans-3-hydroxy-L-proline dehydratase (enzyme, UniProt Q96EM0 1-354, looked up) MESALAVPRLPPHDPGTPVLSVVDMHTGGEPLRIVLAGCPEVSGPTLLAKRRYMRQHLDHVRRRLMFEPRGHRDMYGAVLVPSELPDAHLGVLFLHNEGYSSMCGHAVLALGRFALDFGLVPAPPAGTREARVNIHCPCGLVTAFVACEDGRSHGPVRFHSVPAFVLATDLMVDVPGHGKVMVDIAYGGAFYAFVTAEKLGLDICSAKTRDLVDAASAVTEAVKAQFKINHPDSEDLAFLYGTILTDGKDAYTKEPTTNICVFADEQVDRSPTGSGVTARIALQYHKGLLELNQMRAFKSSATGSVFTGKAVREAKCGDFKAVIVEVSGQAHYTGTASFIIEDDDPLRDGFLLK" measurement_name="stoichiometry N" reported_result=2
protein="CpLhpI, Δ1-pyrroline-2-carboxylate reductase of Colwellia psychrerythraea 34H (enzyme, UniProt Q485R8 1-316, looked up) MKIISAEQVHQNLNFEELIPLLKQSFSRPFSMPQRQVYSLAPEQSENHDAFALLPSWNEEVIGNKAFTYFPDNAKKHDLPGLFSKIMLFKRQTGEPLALVDGTSVTYWRTAAISALASQLLSRKNSQHLMLFGTGNLASYLVKAHLTVRDIKQVTLWGRNAKKVSKLIADFSILYPAVTFKTSVDVNAEVASADIICCATGAKTPLFDGNSVSAGCHIDCLGNHMTDARECDTTTILRARVFVDSLTNTLNEAGELLIPMAEDAFNKDEIVGELADMCKTPSMLRQSSDEITLFKSVGTAISDLVAAHSVVEKLAD" measurement_name="stoichiometry N" reported_result=2
